Value source: paper PMC11070402

Target: VEGFR-2 (KDR) (Homo sapiens)
Sequence (P35968 20-1356): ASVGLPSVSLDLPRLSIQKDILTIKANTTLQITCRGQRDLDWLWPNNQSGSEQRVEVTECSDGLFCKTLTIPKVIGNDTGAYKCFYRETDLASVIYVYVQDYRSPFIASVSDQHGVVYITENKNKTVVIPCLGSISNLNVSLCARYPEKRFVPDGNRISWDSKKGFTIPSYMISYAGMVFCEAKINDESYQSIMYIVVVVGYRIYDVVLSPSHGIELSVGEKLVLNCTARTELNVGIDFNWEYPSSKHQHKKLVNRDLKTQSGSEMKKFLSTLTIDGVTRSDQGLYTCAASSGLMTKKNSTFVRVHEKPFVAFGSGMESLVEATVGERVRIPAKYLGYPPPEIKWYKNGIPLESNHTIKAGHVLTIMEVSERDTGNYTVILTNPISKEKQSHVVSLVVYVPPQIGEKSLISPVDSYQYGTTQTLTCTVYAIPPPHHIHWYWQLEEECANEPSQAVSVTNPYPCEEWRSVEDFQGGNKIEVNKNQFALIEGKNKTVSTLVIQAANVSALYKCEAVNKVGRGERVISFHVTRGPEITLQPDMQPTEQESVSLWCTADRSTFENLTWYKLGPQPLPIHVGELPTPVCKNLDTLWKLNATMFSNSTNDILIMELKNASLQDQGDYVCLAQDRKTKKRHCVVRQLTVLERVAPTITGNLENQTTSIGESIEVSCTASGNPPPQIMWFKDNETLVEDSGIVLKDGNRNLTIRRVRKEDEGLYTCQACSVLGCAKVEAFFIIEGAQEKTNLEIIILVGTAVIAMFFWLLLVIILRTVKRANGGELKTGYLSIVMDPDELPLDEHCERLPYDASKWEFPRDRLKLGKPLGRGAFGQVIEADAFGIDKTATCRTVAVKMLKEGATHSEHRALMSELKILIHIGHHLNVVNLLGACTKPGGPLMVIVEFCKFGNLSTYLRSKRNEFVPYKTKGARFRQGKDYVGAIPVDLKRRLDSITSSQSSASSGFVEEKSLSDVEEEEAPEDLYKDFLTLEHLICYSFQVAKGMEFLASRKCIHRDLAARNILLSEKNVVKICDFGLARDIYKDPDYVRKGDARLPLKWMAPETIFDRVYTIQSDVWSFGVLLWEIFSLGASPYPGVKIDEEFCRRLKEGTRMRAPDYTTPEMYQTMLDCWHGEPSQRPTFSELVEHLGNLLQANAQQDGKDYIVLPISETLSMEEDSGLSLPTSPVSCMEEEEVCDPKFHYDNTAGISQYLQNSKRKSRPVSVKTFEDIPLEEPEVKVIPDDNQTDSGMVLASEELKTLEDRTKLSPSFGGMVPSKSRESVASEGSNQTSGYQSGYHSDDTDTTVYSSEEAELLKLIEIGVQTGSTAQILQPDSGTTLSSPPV
assay readout: IC50
Reply with the number and its unit after it.

Query :: Quote IC50 reported for O=C1Nc2ccccc2C1=Cc1ccc(OCC(=O)c2ccc(Br)cc2)cc1 [Compound 6f] please.
Result :: 5.75 µM
